- ASSAYED_TARGET: human recombinant H-PGDS (Homo sapiens)
- Sequence (O60760 whole entry): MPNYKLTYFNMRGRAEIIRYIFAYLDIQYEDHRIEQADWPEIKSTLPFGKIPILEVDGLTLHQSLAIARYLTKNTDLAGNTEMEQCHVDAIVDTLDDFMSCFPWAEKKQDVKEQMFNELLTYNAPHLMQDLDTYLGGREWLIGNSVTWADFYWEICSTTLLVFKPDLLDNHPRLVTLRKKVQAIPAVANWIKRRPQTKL
- PROTOCOL: Slightly modified fluorescence intensity h-PGDS TBA enzyme assay (1:40,000 enzyme, 40 second reaction, 1/2 log dilutions, top concentration typically 10 μM)
- Format: biochemical
- EXPERIMENTAL_SETUP: slightly modified assay: 1:40,000 human recombinant H-PGDS
Could you please report measured IC50 for the items listed next?
Write the value in µM as a bare number.

Look at this molecule and give its reported IC50. N[C@H]1CCN(C(=O)[C@H]2CC[C@H](NC(=O)c3ccc(-c4cccc(F)c4)nc3)CC2)C1 [Example 98]
0.0216

Look at this molecule and give its reported IC50. O=C(N[C@H]1CCC[C@@H](C(=O)N[C@@H]2CCOC2)C1)c1ccc(-c2cccc(F)c2)nc1 (mixture of isomers) [Example 64K]
0.0109

Look at this molecule and give its reported IC50. NC1CCC(NC(=O)c2ccc(-c3cccc(F)c3)nc2)CC1 (stereo not shown) [Example 44]
0.0675

Look at this molecule and give its reported IC50. CN1CCN(C[C@H]2CC[C@H](NC(=O)c3ccc(-c4cccc(F)c4)nc3)CC2)CC1 [Example 111]
0.023
